Test system: M14
Assay: NCI tumour cell line growth inhibition, 48 h
Calls of active or inactive are those of the source. Cut-off read from the data, not from the text of the source: active = GI50 up to about 1.1 µM and inactive = higher.
measure: GI50

// query Find the recorded GI50 belonging to CC(C)C1OC(=O)/C=C/C=C/C=C/C=C/C=C/CC(O)C(C)C(O)CC(O)CC(O)CC(O)CC(O)CC(O)CC(O)/C=C/C1C (configuration not stated) and report it.
// result > 100 µM (inactive)

// query Suppose we examine the compound O=C1[C@H]2C(c3ccccc3)=NN(C(=O)c3ccccc3)[C@H]2C(=O)N1c1ccccc1 ; what GI50 value has been reported?
// result > 100 µM (inactive)

// query Tell me the measured GI50 of CC[C@H](C)C1=C(O)[N@+]2([O-])Oc3ccc(-c4c(O)c(O)c(-c5ccc(OC(C)=O)cc5)c(OC(C)=O)c4OC(C)=O)cc3O[C@]2([C@@H](C)CC)C(=O)N1O , please.
// result 27.6 µM (inactive)

// query Requested read-out: GI50. Entry: CCCCC1C(=O)N(c2ccc(S(=O)(=O)Nc3ccccn3)cc2)N(c2ccc(O)c(C(=O)O)c2)C1=O (configuration not stated)
// result > 100 µM (inactive)

// query # query: GI50 of entry C[N+]1(C)CC=C(N2CCOCC2)CC1
// result > 10 µM (inactive)

// query Find the recorded GI50 belonging to O=C(NS(=O)(=O)Nc1ccc(Cl)cc1)OCc1ccc(Cl)cc1Cl and report it.
// result 41 µM (inactive)

// query Would you mind telling me what GI50 value was observed for CC1(C)CC(=O)C(Cc2ccccc2)(Cc2ccccc2)C(=O)C1 ?
// result > 100 µM (inactive)

// query Need GI50 of COc1ccc(N2CCN(c3ccc4c(c3)NCC(=O)N4)CC2)cc1 , thanks.
// result 52.5 µM (inactive)

// query Quick check: GI50 of O=C1Nc2ccccc2/C1=N/NC(=S)N1CCCCCC1 ?
// result 0.684 µM (active)

// query Recorded GI50 of COc1ccc(N2C(=O)C3c4[nH]c5ccccc5c4C4CC(C)CC(C)C4C3C2=O)cc1 (configuration not stated) , please.
// result > 100 µM (inactive)

// query Suppose we examine the compound N#CCCN(CCC#N)c1ccc(/C=C2\N=C(c3ccccc3)N(NC(N)=S)C2=O)cc1 ; what GI50 value has been reported?
// result > 100 µM (inactive)

// query Given the compound CCn1cc(/C=C/C(C)c2cn(CC)c(=O)[nH]c2=O)c(=O)[nH]c1=O (configuration not stated) , what is its reported GI50?
// result > 100 µM (inactive)

// query Quick check: GI50 of C=CCC(CNC(=O)OCc1ccccc1)O[Si](C)(C)C(C)(C)C (configuration not stated) ?
// result 26.4 µM (inactive)

// query Any idea what GI50 was measured for CCOC(=O)N1CCN(C(=O)Nc2cccc3ccccc23)CC1 ?
// result > 10 µM (inactive)

// query For the compound shown here, O=c1[nH]/c(=C/c2ccc(OCc3ccccc3)cn2)c(=O)[nH]/c1=C/c1ccc([N+](=O)[O-])cc1 , give the reported GI50.
// result > 100 µM (inactive)

// query Consider the compound O=CN/C=C\c1cc(O)ccc1O and give its measured GI50.
// result 13.5 µM (inactive)

// query Given the entry COc1ccc(-n2c(N)c(C#N)c(C#N)c2-c2ccco2)cc1 , report its measured GI50.
// result > 100 µM (inactive)

// query GET /values?readout=GI50&item= CC(C)(C)[C@H]1CO[C@]2(C)[C@@H]3C[C@@H]3C(=O)N12
// result > 100 µM (inactive)

// query // GI50 lookup, key: Nc1ccc(/N=N/c2ccccc2)cc1
// result 44.4 µM (inactive)

// query Given the entry O=C(c1ccccc1)c1ccc2c(c1)NC(=O)c1ccccc1SSc1ccccc1C(=O)N2 , report its measured GI50.
// result > 100 µM (inactive)

// query What does the data say about its GI50? Entry: Cc1cccc(C)c1NC(=O)C(=O)CC(=O)c1sc(Nc2c(C)cccc2C)nc1C
// result > 100 µM (inactive)

// query Entry under review: CCn1c2c(c3ccccc3c1=O)C(=O)c1ccccc1-2 . Reported GI50?
// result > 100 µM (inactive)

// query // GI50 lookup, key: COc1cc(S(=O)(=O)Nc2ccc(-c3csc(N4C(=O)C(Cl)C4c4cccs4)n3)cc2)ccc1Cl (configuration not stated)
// result > 100 µM (inactive)

// query Can you look up the measured GI50 of CC(=O)NC1C(OCc2ccccc2)OC(CO)C(O)C1OC(C)C(=O)NC(C)C(=O)NC(CCC(=O)NCCCNc1c2ccccc2nc2cccc([N+](=O)[O-])c12)C(N)=O (configuration not stated) for me?
// result 1.97 µM (inactive)

// query Using the record for CN(C)c1ccc(-c2cc(O)c3ccccc3n2)cc1 , report its GI50.
// result > 100 µM (inactive)

// query May I ask what GI50 has been recorded for Cc1nc(C)c(Cc2ccccc2)o1 ?
// result > 100 µM (inactive)

// query I have this compound here, O=c1[nH]cc(COCCO)c(=O)[nH]1 , and I need its recorded GI50.
// result > 100 µM (inactive)

// query Request the reported GI50 associated with Cc1c(C(=O)O)n2c(C)nnc2c2ccccc12
// result > 100 µM (inactive)

// query Reported GI50, compound CN(C)c1ccc(/C=c2\sc3nc4ccccc4n3c2=O)cc1 : ____
// result > 100 µM (inactive)

// query Look at this compound and give its reported GI50. CC(C)C1CCC(=O)CC1CCCCC1CC(=O)CC1O[Si](C)(C)C(C)(C)C (configuration not stated)
// result 6.1 µM (inactive)

// query // lookup GI50 for C/C(=N\NC(=O)c1cccnc1)c1cccc(/C(C)=N/NC(=O)c2cccnc2)n1.CC(=O)[O-].CC(=O)[O-].[Zn+2]
// result 4.46 µM (inactive)

// query Quick one: GI50 for COc1ccc2oc(=O)c(-c3nc4ccccc4o3)cc2c1 ?
// result > 100 µM (inactive)

// query # query: GI50 of entry CC(Cl)CN1c2ccccc2Sc2ccc(Cl)cc21 (configuration not stated)
// result > 10 µM (inactive)

// query Which GI50 is listed for Cn1c(-c2ccccc2)cc(-c2ccc3c(c2)OCO3)c1-c1ccsc1 ?
// result > 100 µM (inactive)

// query Query: GI50; subject: CCC(=O)Nc1ncnc2ncn(C(=O)CC)c12
// result > 100 µM (inactive)

// query What value of GI50 has been reported for the following compound? Cn1c(-c2cccs2)cc(-c2ccsc2)c1-c1cccs1
// result 92.3 µM (inactive)

// query Would you kindly share the measured GI50 for CN(C)CC1CCC/C(=C\c2ccc(N(C)C)cc2)C1=O (configuration not stated) ?
// result 3.55 µM (inactive)

// query Recorded GI50 for COc1cc2c[n+]3c4c(c2c(OC)c1OC)CCCC4CC3 (configuration not stated) , please?
// result > 100 µM (inactive)

// query Name the recorded GI50 for OC1OC(c2ccco2)C(F)(F)C(F)(F)C1(F)F (configuration not stated) .
// result > 100 µM (inactive)

// query Query: GI50; subject: CN(c1ccccc1Cl)S(=O)(=O)c1ccccc1[N+](=O)[O-]
// result 17.3 µM (inactive)

// query Fill blank: measured GI50 of the compound CC1=C(C(=O)NNS(=O)(=O)c2ccc(C)cc2)CC(C(=O)NNS(=O)(=O)c2ccc(C)cc2)=C(C)N1 is ____.
// result > 100 µM (inactive)

// query Query (compound): COc1cc2cnc3c4cc(O)ccc4ccc3c2cc1OC ; field requested: GI50
// result > 100 µM (inactive)

Entry source: ChEMBL document CHEMBL1201862
